The reported measurements were obtained from patent US5608084A.

# Tested on: HepG2
# test_summary: Incorporation of 14C-acetate in the lipidic classes in HepG2 cells (hypolipidaemic activity)
# Assay type: cell-based, human
# condition: 1 μM; per culture plate
# Description: The hypolipidaemic activity of some lactones of general formula I has been evaluated in vitro by testing their influence on the synthesis of the cell lipids like cholesterol, fatty acids, triglycerides, phospholipids and esters of the cholesterol, described by Barnhard J. W. in Amer. J. Cardiol., 62, 52B-56B, (1988). […]
measured_attribute: Incorporation of 14C-acetate: Cholesterol (cpm)

CC(C)(Sc1cc(C(C)(C)C)c(O)c(C(C)(C)C)c1)Sc1cc(C(C)(C)C)c(O)c(C(C)(C)C)c1 [Probucol, reference compound] = 14360
Cc1ccc(C)c(OCCCC(C)(C)C(=O)O)c1 [Gemfibrozil, reference compound] = 20820
Cc1c(C)c2c(c(C)c1O)CCC(C)OC(=O)C(C)(C)CCCO2 (stereo not shown) = 23364
CCC1CCc2c(C)c(O)c(C)c(C)c2OCCCC(C)(C)C(=O)O1 (stereo not shown) = 23597

----------
# Test system: HepG2
# test_summary: Incorporation of 14C-acetate in the lipidic classes in HepG2 cells (hypolipidaemic activity)
# Format: cell-based, human
# condition: Homo sapiens, HepG2; 10 μM; read-out: Incorporation of 14C-acetate: Fatty acids, percent referred to physiological solution
// inhibition at 10 µM lookup, one value per entry
measured_attribute: inhibition at 10 µM (%)

Cc1ccc(C)c(OCCCC(C)(C)C(=O)O)c1 [Gemfibrozil, reference compound] = 44
Cc1c(C)c2c(c(C)c1O)CCC(C)OC(=O)C(C)(C)CCCO2 (stereo not shown) [Example 3] = 45
CCC1CCc2c(C)c(O)c(C)c(C)c2OCCCC(C)(C)C(=O)O1 (stereo not shown) [Example 6] = 50
CC(C)(Sc1cc(C(C)(C)C)c(O)c(C(C)(C)C)c1)Sc1cc(C(C)(C)C)c(O)c(C(C)(C)C)c1 [Probucol, reference compound] = 42

----------
// inhibition at 10 µM lookup, one value per entry
# System: HepG2
# test_summary: Incorporation of 14C-acetate in the lipidic classes in HepG2 cells (hypolipidaemic activity)
# Assay type: cell-based, human
# condition: Homo sapiens, HepG2; 10 μM; read-out: Incorporation of 14C-acetate: Triglycerides, percent referred to physiological solution
measured_attribute: inhibition at 10 µM (%)

CC(C)(Sc1cc(C(C)(C)C)c(O)c(C(C)(C)C)c1)Sc1cc(C(C)(C)C)c(O)c(C(C)(C)C)c1 [Probucol, reference compound] = 3
Cc1c(C)c2c(c(C)c1O)CCC(C)OC(=O)C(C)(C)CCCO2 (stereo not shown) = 4
CCC1CCc2c(C)c(O)c(C)c(C)c2OCCCC(C)(C)C(=O)O1 (stereo not shown) = -1
Cc1ccc(C)c(OCCCC(C)(C)C(=O)O)c1 [Gemfibrozil, reference compound] = 11

----------
# System: HepG2
# test_summary: Incorporation of 14C-acetate in the lipidic classes in HepG2 cells (hypolipidaemic activity)
# Type: cell-based, human
# condition: Homo sapiens, HepG2; 1 μM; read-out: Incorporation of 14C-acetate: Phospholipids, percent referred to physiological solution
measured_attribute: inhibition at 1 µM (%)

CCC1CCc2c(C)c(O)c(C)c(C)c2OCCCC(C)(C)C(=O)O1 (stereo not shown) [Example 6] = 35
CC(C)(Sc1cc(C(C)(C)C)c(O)c(C(C)(C)C)c1)Sc1cc(C(C)(C)C)c(O)c(C(C)(C)C)c1 [Probucol, reference compound] = 31
Cc1ccc(C)c(OCCCC(C)(C)C(=O)O)c1 [Gemfibrozil, reference compound] = 47
Cc1c(C)c2c(c(C)c1O)CCC(C)OC(=O)C(C)(C)CCCO2 (stereo not shown) [Example 3] = 27
